# ASSAYED SYSTEM: T1, soluble mouse BLyS (mouse, UniProt Q9WU72 127-309)
# T1 construct: europium-labelled in DELFIA; also called mBLyS; mouse BAFF (BLyS)
# ASSAY METHOD TEXT: Biacore T100, binder captured by anti-human Fc, BLyS injected, 1:1 model
pKd: −log10 of the molar value.
Please enter TRUE where pKd is greater than or equal to 10, and FALSE where it is lower.

For orientation, consider the following solved cases.
BINDER	GROUP
5B7 IgG1 F243A/V264A double mutein expressed in Pichia pastoris (antibody, V domains shown, IgG1 F243A/V264A (EU) double mutein, alpha-2,6-sialylated, from glycoengineered Pichia pastoris; also called 5B7-DM; 5B7-DM Pichia) VH: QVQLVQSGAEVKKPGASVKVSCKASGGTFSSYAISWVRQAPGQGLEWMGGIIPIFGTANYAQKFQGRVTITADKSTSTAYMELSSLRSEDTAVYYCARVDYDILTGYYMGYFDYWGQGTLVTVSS VL: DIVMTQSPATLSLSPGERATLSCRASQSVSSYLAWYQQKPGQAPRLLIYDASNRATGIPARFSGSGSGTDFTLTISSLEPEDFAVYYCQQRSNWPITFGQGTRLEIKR	TRUE
5G10 IgG1 F243A/V264A double mutein expressed in Pichia pastoris (antibody, V domains shown, IgG1 F243A/V264A (EU) double mutein, alpha-2,6-sialylated, from glycoengineered Pichia pastoris; also called 5G10 (D132947)) VH: QMQLVQSGAEVKKPGASVKVSCKASGYTFTSYAMHWVRQAPGQRLEWMGWINAGNGNTKYSQKFQGRVTITRDTSASTAYMELSSLRSEDTAVYYCAREMAVAGTYYYYGMDVWGQGTTVTVSS VL: DIQLTQSPSTLSASVGDRVTITCRASQSISGWLAWYQQKPGRAPKLLIYKASSLESGVPSRFSGSGSGTDFTLTISSLQPEDIATYYCQQFDNLLLMYTFGQGTKLEIRR	FALSE

API: the following record is the query input.
Is the recorded value of pKd equal to or greater than 10 for this binder? 6C10 IgG1 F243A/V264A double mutein expressed in Pichia pastoris (antibody, V domains shown, IgG1 F243A/V264A (EU) double mutein, alpha-2,6-sialylated, from glycoengineered Pichia pastoris; also called 6C10-DM; 6C10-DM (Pichia)) VH: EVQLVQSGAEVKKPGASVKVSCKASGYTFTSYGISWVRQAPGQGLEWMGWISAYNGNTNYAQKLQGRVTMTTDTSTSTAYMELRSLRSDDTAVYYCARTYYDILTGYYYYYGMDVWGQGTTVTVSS VL: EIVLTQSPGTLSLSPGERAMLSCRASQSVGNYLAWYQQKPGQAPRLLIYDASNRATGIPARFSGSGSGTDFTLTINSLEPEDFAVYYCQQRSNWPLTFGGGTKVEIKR FALSE
